System: RXF 393 renal
test: NCI-60 one-dose screen, 48 h
protocol-conditions: 10 µM unless noted
Compounds without any hit were thinned out: in the full panel of roughly 83,000, 20% have a hit. The source made the active and inactive calls. Rule for the calls: active = growth percent below 10; inactive = the rest.
Outcome field: choose from active, inactive

Consider the following illustrative entries.
OCCOCC(F)(F)F    inactive
CCCCOc1c(N)cc(Cl)cc1C(=O)OCCN(CC)CC    inactive
COc1ccc(-c2nn(-c3ccc(NC(=O)c4cc(Cl)cc(Cl)c4)cc3)cc2-c2ccncc2)cc1Cl    active

Asked: What did the test return for COc1ccc(Cl)cc1NC(=O)c1cc2c([nH]1)-c1nc(NC(=O)C(C)(C)C)sc1CC2 ?
Given back: inactive

Asked: What did the test return for CCCCC(=O)Nc1nc2ccc(SCCC)cc2s1 ?
Given back: inactive

====

Reported growth values for a set of compounds
System: SF-268 CNS
test: NCI-60 one-dose screen, 48 h (100 = growth as untreated, 0 = no growth, -100 = all killed)
protocol-conditions: 10 µM unless noted
Compounds without any hit were thinned out: in the full panel of roughly 83,000, 20% have a hit.
# number only, unit % dropped from output

Consider the worked cases shown below.
c1cncc(-c2nc3ccccc3[nH]2)c1    105
CCc1ccc(C2=C/C(=C/c3ccc(Cl)cc3)C(=O)N2CCc2ccc(S(N)(=O)=O)cc2)cc1    45.6
COc1cc(NC(C)CCCN2C(=O)c3ccccc3C2=O)c2ncccc2c1OC (stereo unspecified)    108
CCN1CCN(Cc2ccc(NC(=O)Nc3cccc(-n4ccc5c(NC(=O)c6ccccc6)nccc54)c3)cc2C(F)(F)F)CC1    85.3
COc1ccc(-c2cc(-c3nnc(SC/C(=N\O)c4ccccc4)n3-c3ccccc3)c3ccccc3n2)cc1    102

Asked: Requested field: growth. Item: Nc1nc2ccc(CNc3ccc(C(=O)NC(CC(=O)O)C(=O)O)cc3)cc2c(=O)[nH]1 (stereo unspecified)
Given back: 40.1

Asked: Requested field: growth. Item: O=C(Nc1ccc(-n2ccc3c(NC(=O)c4ccccc4)ncnc32)cc1)c1cccc(C(F)(F)F)c1
Given back: 38.9

Asked: Requested field: growth. Item: COc1cc(NS(=O)(=O)c2ccc(N)cc2)ncn1
Given back: 109

Asked: Requested field: growth. Item: CCNc1ncnc2n[nH]nc12
Given back: 99.5

Asked: Requested field: growth. Item: O=C1CCC(c2c(O)cc(O)c3c(=O)c(O)c(-c4ccc(O)c(O)c4)oc23)N1 (stereo unspecified)
Given back: 96.4

Asked: Requested field: growth. Item: FC(F)(F)c1cn(CC2CNC2)c2ncnc(Cl)c12
Given back: 99.2

====

Test system: M14 melanoma
test: NCI-60 one-dose screen, 48 h
protocol-conditions: 10 µM unless noted
This is part of a sample that, as a whole, favours compounds with a hit. Of some 83,000 tested, about 20% had one in any assay. Calls of active or inactive are those of the source. How the source made its calls: active means growth percent below 10; inactive means the rest.
Outcome field: choose from True for active, False for inactive

O=C(Nc1ccc(F)cc1)Nc1ccc(Cl)c([N+](=O)[O-])c1    False
OCCOCC(F)(F)F    False
COc1cc(/C=C2/Oc3cc4occc4c(OC)c3C2=O)ccc1OCC(=O)Nc1ccncc1    False
O=C(Nc1cccc(-n2ccc3c(NC(=O)c4ccccc4)nccc32)c1)Nc1cc(C(F)(F)F)cc(C(F)(F)F)c1    True

Asked: What did the test return for CC(C)(C)NCC(O)COc1c(Br)c(Br)c(Br)c2c1OC(C)(C)C2 (stereo unspecified) ?
Given back: True

Asked: What did the test return for CNCCCOc1c(Br)cc(CCNC(=O)/C(Cc2ccc(OC)c(Br)c2)=N/O)cc1Br ?
Given back: True

Asked: What did the test return for CCCc1nn2c(CCC(=O)c3nc4ccc([N+](=O)[O-])cc4[nH]3)nnc2s1 ?
Given back: False

Asked: What did the test return for O=C(Nc1ccc(Cl)c(Cl)c1)Nc1ccc(Cl)c([N+](=O)[O-])c1 ?
Given back: True

Asked: What did the test return for O=C(C[n+]1cccc(Br)c1)c1ccc2c(c1)CCCC2 ?
Given back: False
